molecular target: Recombinant TYK2 (Homo sapiens, UniProt P29597); construct: purchased Carna Biosciences; assay: JAK biochemical assay (LANCE Ultra TR-FRET), TYK2; conditions: recombinant TYK2, TR-FRET; read-out: Biochemical Assay (μM) TYK2
Sequence (P29597 whole entry): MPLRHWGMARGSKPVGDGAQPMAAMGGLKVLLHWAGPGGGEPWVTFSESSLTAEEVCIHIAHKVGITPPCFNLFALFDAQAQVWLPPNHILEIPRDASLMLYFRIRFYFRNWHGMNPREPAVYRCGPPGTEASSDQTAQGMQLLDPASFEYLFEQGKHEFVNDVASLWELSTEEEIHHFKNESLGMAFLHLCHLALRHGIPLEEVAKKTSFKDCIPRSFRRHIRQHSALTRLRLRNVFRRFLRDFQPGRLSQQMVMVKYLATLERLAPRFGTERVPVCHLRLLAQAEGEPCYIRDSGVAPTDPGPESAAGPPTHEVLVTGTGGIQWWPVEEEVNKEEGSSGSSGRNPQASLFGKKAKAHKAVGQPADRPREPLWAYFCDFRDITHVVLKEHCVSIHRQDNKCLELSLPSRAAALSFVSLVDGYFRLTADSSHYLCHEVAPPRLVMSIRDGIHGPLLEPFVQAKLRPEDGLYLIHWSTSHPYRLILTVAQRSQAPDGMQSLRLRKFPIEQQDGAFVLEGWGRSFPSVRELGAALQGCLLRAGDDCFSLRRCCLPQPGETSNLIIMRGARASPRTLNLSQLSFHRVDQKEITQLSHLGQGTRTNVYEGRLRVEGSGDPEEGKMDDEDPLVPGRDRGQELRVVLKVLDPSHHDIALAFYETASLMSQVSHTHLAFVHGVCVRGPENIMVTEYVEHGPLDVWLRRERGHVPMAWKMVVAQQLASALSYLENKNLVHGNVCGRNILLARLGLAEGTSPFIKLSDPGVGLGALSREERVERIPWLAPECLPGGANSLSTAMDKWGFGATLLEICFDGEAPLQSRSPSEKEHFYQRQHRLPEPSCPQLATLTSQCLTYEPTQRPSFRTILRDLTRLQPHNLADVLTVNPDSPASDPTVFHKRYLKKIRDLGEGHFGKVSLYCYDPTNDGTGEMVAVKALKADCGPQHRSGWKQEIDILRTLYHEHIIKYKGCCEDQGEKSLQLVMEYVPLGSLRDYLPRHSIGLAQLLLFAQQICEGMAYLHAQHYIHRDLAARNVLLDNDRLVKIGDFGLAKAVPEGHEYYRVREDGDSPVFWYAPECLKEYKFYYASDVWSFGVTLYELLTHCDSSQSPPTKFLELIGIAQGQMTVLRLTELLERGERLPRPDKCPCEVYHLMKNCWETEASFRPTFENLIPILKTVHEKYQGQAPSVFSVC
Counter-ions that a name gives are not always drawn.
QUANTITY_KIND: IC50

Sample answers from the record:
Req: Request: IC50, test system Recombinant TYK2 (Homo sapiens, UniProt P29597), entry CS(=O)(=O)N1CC(C(C#N)c2ccc(-n3cc(-c4ccnc5[nH]cnc45)cn3)nc2)C1 (stereo not drawn) [Example 1115]
Resp: > 1 µM

Req: Query for Recombinant TYK2 (Homo sapiens, UniProt P29597): what IC50 does the record show for O=C(NCC(F)(F)F)Nc1ccc(-c2ccnc3[nH]cnc23)cc1 [Example 1010] ?
Resp: > 1 µM

Req: Form: Entry = CC(CN1CC(C#N)C1)NC(=O)n1cc(-c2ccnc3[nH]cnc23)cn1 (stereo not drawn) [Example 1068] | System = Recombinant TYK2 (Homo sapiens, UniProt P29597) | IC50 = ____
Resp: > 1 µM

Req: Lab request: please report IC50 under test system Recombinant TYK2 (Homo sapiens, UniProt P29597) for FC(F)(F)C(CCNC1CC1)c1ccc(-n2cc(-c3ccnc4[nH]cnc34)cn2)nc1 (stereo not drawn) [Example 1153]
Resp: > 0.5 µM

Req: Hello, I am looking for reported IC50 with Recombinant TYK2 (Homo sapiens, UniProt P29597) for N#CCC(NC(=O)n1cc(-c2ccnc3[nH]c(=O)[nH]c23)cn1)C(F)(F)F (stereo not drawn) [Example 1050] . Could you help?
Resp: < 0.5 µM

Req: Field: IC50 (Recombinant TYK2 (Homo sapiens, UniProt P29597)). Entry: N#CC(c1ccc(-n2cc(-c3ccnc4[nH]cnc34)cn2)nc1)N1CC(F)(F)C1 (stereo not drawn) [Example 1111]
Resp: > 10 µM

Req: Given the entry CNCC[C@@H](c1ccc(-n2cc(-c3ccnc4[nH]cnc34)cn2)nc1)C(F)(F)F [Example 1217, TFA salt] , what IC50 was observed with Recombinant TYK2 (Homo sapiens, UniProt P29597)?
Resp: 0.08 µM

Req: Given the entry CN(C)C(c1ccc(-n2cc(-c3ccnc4[nH]cnc34)cn2)nc1)C(F)(F)F (stereo not drawn) [Example 1121] , what IC50 was observed with Recombinant TYK2 (Homo sapiens, UniProt P29597)?
Resp: > 1 µM

Req: Request: IC50, test system Recombinant TYK2 (Homo sapiens, UniProt P29597), entry FC(F)(F)C(c1ccc(-n2cc(-c3ccnc4[nH]cnc34)cn2)nc1)N1CCOCC1 (stereo not drawn) [Example 1137]
Resp: > 1 µM

Req: // map N#CCC(=O)N1CC(C(O)(c2ccc(-n3cc(-c4ccnc5[nH]cnc45)cn3)nc2)C(F)(F)F)C1 (stereo not drawn) [Example 1245] to recorded IC50 (system: Recombinant TYK2 (Homo sapiens, UniProt P29597))
Resp: > 1 µM

Below is a list of molecules. For each, state its recorded IC50.
1. CC(C)N1CCC(C(O)(c2ccc(-n3cc(-c4ccnc5[nH]cnc45)cn3)nc2)C(F)(F)F)CC1 (stereo not drawn) [Example 1240]
2. CNCCC(c1ccc(-n2cc(-c3ccnc4[nH]cnc34)cn2)nc1)C(F)(F)F (stereo not drawn) [Example 1152]

Resp:
1. > 1 µM
2. > 0.5 µM

Quick request: IC50 for each listed item, please.
1. N#CC(c1ccc(-n2cc(-c3ccnc4[nH]cnc34)cn2)cc1)C1CC1 (stereo not drawn) [Example 1100]
2. N#CC(c1ccc(-n2cc(-c3ccnc4[nH]cnc34)cn2)nc1)N1CCS(=O)(=O)CC1 (stereo not drawn) [Example 1113]

Resp:
1. > 10 µM
2. > 1 µM

Req: Checklist item: IC50 tested on Recombinant TYK2 (Homo sapiens, UniProt P29597), entry FC(F)(F)C(CN1CCOCC1)c1ccc(-n2cc(-c3ccnc4[nH]cnc34)cn2)nc1 (stereo not drawn) [Example 1206] , value?
Resp: > 1 µM
